Biological target: CIB1 and αIIb interaction (CIB1-GST : F-αIIb peptide) (Homo sapiens, UniProt Q99828)
Construct: made in house; host or cells: BL-21 plus RIL cells (E. coli)
Sequence (Q99828 1-191): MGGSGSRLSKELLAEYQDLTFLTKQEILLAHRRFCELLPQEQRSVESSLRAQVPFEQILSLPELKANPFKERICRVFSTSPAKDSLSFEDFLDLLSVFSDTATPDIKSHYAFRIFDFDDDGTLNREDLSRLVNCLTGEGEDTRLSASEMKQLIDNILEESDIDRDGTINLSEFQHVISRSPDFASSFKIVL
Assay: FP assay, 1536-well qHTS format (primary and confirmatory screen)
Assay type: binding
Conditions: qHTS primary screen of LOPAC/NPACT libraries; negative sign = inhibitory curve
Below, each of the molecules is paired with its reported Curve Class value.

Some entries whose results are on file:
Cc1cc(O)cc(Oc2cc(C)c(C(=O)O)c(O)c2)c1    -2.4
O=C(Nc1cccc(C(=O)Nc2ccc(S(=O)(=O)O)c3cc(S(=O)(=O)O)cc(S(=O)(=O)O)c23)c1)Nc1cccc(C(=O)Nc2ccc(S(=O)(=O)O)c3cc(S(=O)(=O)O)cc(S(=O)(=O)O)c23)c1    -1.4
O=c1oc(Cl)c(Cl)c2ccccc12    -2.2

For record `CCOC(=O)C1=C(C)NC(C)=C(C(=O)OCC)C1c1c(F)c(F)c(F)c(F)c1F` the listed Curve Class is -1.2

For record `O=C(Nc1ncc([N+](=O)[O-])s1)c1ccccc1O` the listed Curve Class is -2.4

For record C=C1CCC2C(C)(COC(C)=O)CCCC2(C)C1CCC(C)CC(=O)O (centres unmarked) the listed Curve Class is -1.4

For record `CN(NC(=O)CC(=O)NN(C)C(=S)c1ccccc1)C(=S)c1ccccc1` the listed Curve Class is -2.4

For record `CCCC(C(=O)OCCN(CC)CC)(c1ccccc1)c1ccccc1.Cl` the listed Curve Class is -2.4

----------
Below, each of the compounds is paired with its reported Efficacy (%) (counterscreen) value.
Biological target: GST-CIB1 : F-scrambled peptide (Homo sapiens, UniProt Q99828)
Construct: made in house; host or cells: BL-21 plus RIL cells (E. coli)
Sequence (Q99828 1-191): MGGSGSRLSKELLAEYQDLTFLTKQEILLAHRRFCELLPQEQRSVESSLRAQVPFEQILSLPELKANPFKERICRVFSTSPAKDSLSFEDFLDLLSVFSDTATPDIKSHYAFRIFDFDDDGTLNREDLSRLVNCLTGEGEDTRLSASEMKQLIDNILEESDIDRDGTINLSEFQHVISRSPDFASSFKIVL
Assay: FP scrambled-peptide counter screen, 1536-well format
Type: binding
Settings: counterscreen
Numeric answer only, unit % assumed.

Some entries whose results are on file:
COc1ccc(NC(=O)c2[nH]c(C)c(C(C)=O)c2C)cc1S(=O)(=O)Nc1ccccc1C#N    157
Nc1nc2c(s1)C(c1ccc(F)cc1F)CC(=O)N2 (stereo not shown)    -16

For record `NC(=O)c1ccnc2c(O)cccc12.O=C(O)C(F)(F)F` the listed Efficacy (%) (counterscreen) is -17

For record `COc1ccc(CC(=O)Nc2ccc(S(=O)(=O)Nc3cc(C)on3)cc2)cc1C.O=C(O)C(F)(F)F` the listed Efficacy (%) (counterscreen) is -14

For record `COc1ccc(C(=O)c2no[n+]([O-])c2C(=O)c2ccc(OC)cc2)cc1.O=C(O)C(F)(F)F` the listed Efficacy (%) (counterscreen) is -30

For record `CC1=C[C@@H]2[C@H]([C@@H](O)C[C@@]3(C)[C@H]2C[C@@H](C)[C@]3(O)C(=O)CO)[C@@]2(C)Cc3cnn(-c4ccccc4)c3C=C12` the listed Efficacy (%) (counterscreen) is -41

For record `CN(C)c1ccc(NC(=S)N/N=C2\C(=O)Nc3ccccc32)cc1.O=C(O)C(F)(F)F` the listed Efficacy (%) (counterscreen) is -44

----------
Below, each of the molecules is paired with its reported Efficacy (%) value.
Biological target: CIB1 and αIIb interaction (CIB1-GST : F-αIIb peptide) (Homo sapiens, UniProt Q99828)
Construct: made in house; host or cells: BL-21 plus RIL cells (E. coli)
Sequence (Q99828 1-191): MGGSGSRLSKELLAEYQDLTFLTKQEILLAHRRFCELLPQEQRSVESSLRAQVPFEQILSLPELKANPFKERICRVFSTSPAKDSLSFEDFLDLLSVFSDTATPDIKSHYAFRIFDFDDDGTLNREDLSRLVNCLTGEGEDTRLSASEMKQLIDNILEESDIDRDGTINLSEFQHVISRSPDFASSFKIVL
Assay: FP assay, 1536-well qHTS format (primary and confirmatory screen)
Type: binding
Conditions: qHTS FP screen hits, Table S2; negative = inhibition
Numeric answer only, unit % assumed.

Some entries whose results are on file:
CCN(CC)CCN(Cc1ccc(-c2ccc(C(F)(F)F)cc2)cc1)C(=O)Cn1c(SCc2ccc(F)cc2)nc(=O)c2c1CCC2    -54
C[C@@H]1CC[C@]2(C)C3(C)CC[C@@]2(OC3=O)[C@@]12C[C@H](c1ccoc1)OC2=O    -33
CC(C)(C)c1ccc(SC2=NS(=O)(=O)c3ccccc32)cc1    -38
O=C(NCCCN1CCNCC1)c1cccc(-c2cc(O)c3ncccc3c2)c1.O=C(O)C(F)(F)F    -46
O=C(O)C(F)(F)F.Oc1cccc2cc(N3CCCC3)cnc12    -48

For record `Fc1ccc(NC(=S)Nc2nnc(-c3ccncc3)s2)cc1C(F)(F)F.O=C(O)C(F)(F)F` the listed Efficacy (%) is -41

For record Nc1nc2c(s1)C(c1ccccc1C(F)(F)F)CC(=O)N2.O=C(O)C(F)(F)F (stereo not shown) the listed Efficacy (%) is -83

For record `O=C(O)C(F)(F)F.O=C(O)c1ccc(O)c2ncc(-c3n[nH]nc3-c3ccccc3)cc12` the listed Efficacy (%) is -21

For record `CCc1oc2ccccc2c1C(=O)c1cc(I)c(O)c(I)c1` the listed Efficacy (%) is -52

For record `Cc1coc2c1C(=O)C(=O)c1c-2ccc2c(C)cccc12` the listed Efficacy (%) is -40

For record `Cc1cc(F)ccc1S(=O)(=O)Nc1cnccc1C(=O)Nc1nc(-c2ccccc2)cs1` the listed Efficacy (%) is -51

For record `CN1CCN(c2ccc(-c3cc(O)c4ncccc4c3)cc2)CC1.O=C(O)C(F)(F)F` the listed Efficacy (%) is -51

For record `CC[C@@H](c1ccc(F)c(F)c1)n1c(C(=O)OC)c(-c2ccno2)[nH]c1=S` the listed Efficacy (%) is -79

For record `OC[C@H]1O[C@@H](Oc2ccc(O)c3cccc(O)c23)[C@H](O)[C@@H](O)[C@@H]1O` the listed Efficacy (%) is -54

For record `C=Cc1c(C)c2cc3[nH]c(cc4nc(cc5nc(cc1[nH]2)C(C)=C5CCC(=O)O)C(CCC(=O)O)=C4C)c(C)c3C=C` the listed Efficacy (%) is -75

For record `Cl.O=C1c2c(O)ccc(O)c2C(=O)c2c(NCCNCCO)ccc(NCCNCCO)c21` the listed Efficacy (%) is -85

----------
Target: CIB1 and αIIb interaction (CIB1-GST : F-αIIb peptide) (Homo sapiens)
Construct: made in house; host or cells: BL-21 plus RIL cells (E. coli)
Sequence (Q99828 1-191): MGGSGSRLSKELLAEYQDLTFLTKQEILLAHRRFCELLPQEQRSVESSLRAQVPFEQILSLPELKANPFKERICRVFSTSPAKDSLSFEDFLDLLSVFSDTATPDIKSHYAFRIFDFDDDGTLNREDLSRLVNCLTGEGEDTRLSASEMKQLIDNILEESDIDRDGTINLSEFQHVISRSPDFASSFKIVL
Assay: FP assay, 1536-well qHTS format (primary and confirmatory screen)
Assay type: binding
Conditions: qHTS primary screen hits, Table S2; read-out: IC50
value.kind: IC50 (µM)
Numeric answer only, unit µM assumed.

For record `O=S(=O)(c1ccc2nc(Cl)c(Cl)nc2c1)N1CCN(S(=O)(=O)c2c(F)cccc2F)CC1` the listed IC50 is 2.2

----------
target: CIB1 and αIIb interaction (CIB1-GST : F-αIIb peptide) (Homo sapiens, UniProt Q99828); construct: made in house; host or cells: BL-21 plus RIL cells (E. coli); assay: FP assay, 1536-well qHTS format (primary and confirmatory screen); format: binding; conditions: qHTS FP screen hits, Table S2; read-out: IC50
value.kind: pIC50
// scale note: pIC50 = -log10(conc_M); give the bare number

C=C1C(=O)OC2C(OC(=O)C=C(C)C)C(C)=C3C(=O)C=C(C)C3C(O)C12 (stereo not shown)    5.60
COc1ccc2c(c1)C=C1Cn3c-2c(C2CCCCC2)c2ccc(cc23)C(=O)NS(=O)(=O)N(C)CCOCCN(C)C1=O    4.25
O=C(O)c1cc(/N=N/c2ccc(S(=O)(=O)Nc3ccccn3)cc2)ccc1O    4.60
COc1cc(Nc2c(C#N)cnc3cc(OCCCN4CCN(C)CC4)c(OC)cc23)c(Cl)cc1Cl    4.30
O=C(O)C(F)(F)F.O=C(O)c1ccc(-c2ccc3ncnc(NCc4nccs4)c3c2)o1    5.00

For record CC(=O)c1c(O)cc2c(c1C)C(=O)CC(O)C2 (stereo not shown) the listed pIC50 is 4.25

For record `Cc1ccc(C)n1-c1cccc(C(=O)O)c1.O=C(O)C(F)(F)F` the listed pIC50 is 4.49

For record `CCc1ccc(/C=C2/SC(=S)NC2=O)cc1` the listed pIC50 is 5.09

For record `O=C(O)Cc1ccc(CCNS(=O)(=O)c2ccc(Cl)cc2)cc1` the listed pIC50 is 4.10

For record `Cc1c2c(=O)n(-c3ccccc3)[nH]c2cc(=O)n1-c1cccnc1.O=C(O)C(F)(F)F` the listed pIC50 is 4.40

For record `O=C(O)C(F)(F)F.O=C(O)c1ccc(O)c2ncc(-c3n[nH]nc3-c3ccccc3)cc12` the listed pIC50 is 4.55

For record `CN(C)CCCn1cc(C2=C(c3c[nH]c4ccccc34)C(=O)NC2=O)c2ccccc21` the listed pIC50 is 4.40

For record `CCc1nnc(NS(=O)(=O)c2ccc(NC(=S)NC(=O)/C=C/c3ccc(F)cc3)cc2)s1` the listed pIC50 is 5.10

For record `Cc1ccc(-c2csc(NC(=O)c3ccncc3NS(=O)(=O)c3ccc(C)cc3)n2)cc1.O=C(O)C(F)(F)F` the listed pIC50 is 4.75

For record `N#Cc1ccc(Nc2nc(-c3ccc(O)cc3O)cs2)cc1C(F)(F)F` the listed pIC50 is 4.45

For record `O=C(O)CSc1cc(NS(=O)(=O)c2ccc(Br)cc2)c2ccccc2c1O` the listed pIC50 is 4.35

Taken from paper PMC11249646.
